Target: T1, human Nectin-4 (Homo sapiens, UniProt Q96NY8)
T1 sequence (Q96NY8 32-510): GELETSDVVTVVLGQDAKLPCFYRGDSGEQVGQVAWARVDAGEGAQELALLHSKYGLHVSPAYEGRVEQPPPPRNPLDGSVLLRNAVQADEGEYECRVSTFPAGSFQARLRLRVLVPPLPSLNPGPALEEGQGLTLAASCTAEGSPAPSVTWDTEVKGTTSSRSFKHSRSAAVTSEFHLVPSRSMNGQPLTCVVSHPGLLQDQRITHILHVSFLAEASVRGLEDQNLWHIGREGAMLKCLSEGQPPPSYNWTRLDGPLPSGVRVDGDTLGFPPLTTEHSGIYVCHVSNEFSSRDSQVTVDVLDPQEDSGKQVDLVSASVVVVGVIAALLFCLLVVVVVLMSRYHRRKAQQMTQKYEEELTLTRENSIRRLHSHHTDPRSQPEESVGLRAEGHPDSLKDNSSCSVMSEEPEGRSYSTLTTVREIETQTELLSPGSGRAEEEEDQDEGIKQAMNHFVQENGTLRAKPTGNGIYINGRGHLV
Assay: Binding to human Nectin-4 by SPR
Conditions: SPR; human IgG1 isotype antibodies; first set (Table 4)
Assignment: determine reported Kd for the given molecules.
State the result as a value with its unit after it.

Fill in reported Kd for this entry: H3L1 (antibody, human IgG1, V domains shown, human IgG1 isotype) VH: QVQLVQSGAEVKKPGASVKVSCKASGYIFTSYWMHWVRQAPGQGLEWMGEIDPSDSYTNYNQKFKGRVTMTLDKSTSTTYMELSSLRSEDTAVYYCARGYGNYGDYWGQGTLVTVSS VL: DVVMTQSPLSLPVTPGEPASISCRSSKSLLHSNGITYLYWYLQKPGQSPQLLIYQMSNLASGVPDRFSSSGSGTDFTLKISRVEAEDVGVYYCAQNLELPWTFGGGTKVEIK
0.022 µM

// fetch Kd given entry H1L0 (antibody, human IgG1, V domains shown, human IgG1 isotype) VH: QVQLVQSGAEVKKPGASVKVSCKASGYTFTSYWMHWVRQAPGQGLEWMGEIDPSDSYTNYNQKFKGRVTMTLDTSTSTTYMELSSLRSEDTAVYYCARGYGNYGDYWGQGTLVTVSS VL: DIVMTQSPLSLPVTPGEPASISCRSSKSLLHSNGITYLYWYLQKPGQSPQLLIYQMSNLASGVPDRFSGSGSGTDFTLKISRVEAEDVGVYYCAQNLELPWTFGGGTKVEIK
0.0673 µM

Return reported Kd. Input molecule: H3L2 (antibody, human IgG1, V domains shown, human IgG1 isotype) VH: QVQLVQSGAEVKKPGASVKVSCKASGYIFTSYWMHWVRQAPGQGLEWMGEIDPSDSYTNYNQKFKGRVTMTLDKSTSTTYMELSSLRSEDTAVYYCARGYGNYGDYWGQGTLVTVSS VL: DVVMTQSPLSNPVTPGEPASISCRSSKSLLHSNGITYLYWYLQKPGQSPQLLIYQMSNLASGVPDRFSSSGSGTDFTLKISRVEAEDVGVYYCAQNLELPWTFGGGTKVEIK
0.0259 µM
